- assay.notes: in vitro
- Format: in vitro ADME
- condition.parameters: microsomes, pH 7.4; dog; 1 μM compound, 0.5 mg/mL protein; read-out: Liver Microsomal Stability t1/2
# maps each entry to its half-life at 1 μM
assay.endpoint: half-life at 1 μM (h)

[[record]]
smiles_text = "CC(C)Nc1ccc(-c2nn3cccnc3c2C(=O)N[C@H]2N=C(c3ccccc3)c3cccc(F)c3NC2=O)c(F)n1"
assay_endpoint = "half-life at 1 μM"
unit_of_measure = "h"
measured_value = 0.525

[[record]]
smiles_text = "Cc1ccc2nc(-c3ccc(F)cc3F)c(C(=O)N[C@H]3N=C(c4ccccc4)c4cccc(F)c4NC3=O)n2n1"
assay_endpoint = "half-life at 1 μM"
unit_of_measure = "h"
measured_value = 4.47

[[record]]
smiles_text = "Cc1nn2cc(-c3ccoc3)cnc2c1C(=O)N[C@H]1N=C(c2ccccc2)c2cccc(F)c2NC1=O"
assay_endpoint = "half-life at 1 μM"
unit_of_measure = "h"
measured_value = 1.98

[[record]]
smiles_text = "O=C(N[C@H]1N=C(c2ccccc2)c2cccc(F)c2NC1=O)c1c(-c2cnc3[nH]ccc3c2)nn2cccnc12"
assay_endpoint = "half-life at 1 μM"
unit_of_measure = "h"
measured_value = 1.45

[[record]]
smiles_text = "CN1CCN(c2ccc3nc(-c4ccccc4F)c(C(=O)N[C@H]4N=C(c5ccccc5)c5cccc(F)c5NC4=O)n3n2)CC1"
assay_endpoint = "half-life at 1 μM"
unit_of_measure = "h"
measured_value = 1.11

[[record]]
smiles_text = "CN1C[C@@H]2C[C@H]1CN2c1ccc2nc(-c3ccccc3)c(C(=O)N[C@H]3N=C(c4ccccc4)c4cccc(F)c4NC3=O)n2n1"
assay_endpoint = "half-life at 1 μM"
unit_of_measure = "h"
measured_value = 2.98

[[record]]
smiles_text = "O=C(N[C@H]1N=C(c2ccccc2)c2cccc(F)c2NC1=O)c1c(-c2cncc(Cl)c2)nn2cccnc12"
assay_endpoint = "half-life at 1 μM"
unit_of_measure = "h"
measured_value = 4.28

